Quick reference for MIC among some compounds
Tested on: Candida albicans
assay-method-text: In vitro antifungal activity, MIC (Method A)
Format: cell-based
cond: Candida albicans, 72 h, pH 7, Candida albicans CY3003, 1×10^5 cells/ml, 3 days, 27° C.
Where a name gives a salt, the structure may show the parent alone.
Use µg/mL as the unit, but write only the number.

The following compounds have reported results that may help.
> print(dat)
                                   compound  data.value
1  CCCCCCCC/C=C/[C@@H]1OC[C@H](C)[C@H](OC)[C@H]1OC(=O)CN.O=C(O)C(F)(F)F [Example 6]         100
2  CCCCCCC/C=C\[C@@H]1OC[C@H](C)[C@H](OCCC)[C@H]1OC(=O)CN [Example 22, trifluoroacetic acid salt]          50
3  CCCCCCCCC[C@@H]1OC[C@H](C)C=C1Cn1ccnc1 [Example 59]          25

Value lookup for MIC; key = CCCCCCCCO[C@@H]1CCC(C)(C)C[C@H]1CC(O)CN (relative stereo) [Example 84] 12.5

What about CCCCCCCCC[C@@H]1OC[C@@H](C)[C@H](OC)[C@@H]1OC(=O)CN.O=C(O)C(F)(F)F [Example 43] ? 25

----------
Quick reference for MIC among some compounds
Tested on: Candida albicans
assay-method-text: In vitro antifungal activity, MIC (Method A)
Type: cell-based
cond: Candida albicans, 72 h, pH 7, Candida albicans CY3003, 1×10^5 cells/ml, 3 days, 27° C.
Structures can show the parent of a compound that is named as a salt.
Use µg/mL as the unit, but write only the number.

The following compounds have reported results that may help.
> print(dat)
                                   compound  data.value
1  CCCCCCC/C=C\[C@@H]1OC[C@H](C)[C@H](OC)[C@H]1OC(=O)CN [Example 1, acetic acid salt]         100
2  CCCCCCCCO[C@@H]1CCC(C)(C)[C@H](OC)[C@@H]1Cn1ccnc1 [Example 68]        12.5
3  CCCCCCC/C=C/[C@@H]1OC[C@H](C)C[C@H]1OC(=O)CN.O=C(O)C(F)(F)F [Example 28]          50
4  CCCCC/C=C/C=C/[C@@H]1OC[C@H](C)[C@H](OC)[C@H]1OC(=O)CN.O=CO [Example 47]         100
5  CCCCCCC/C=C/[C@@H]1OC[C@H](C)C2(OCCO2)[C@H]1OC(=O)CN.O=C(O)C(F)(F)F [Example 46]          25

Alright, here's another compound for you.
Value lookup for MIC; key = CCCCCCCCC[C@@H]1OC[C@H](C)[C@H](OCCC)[C@H]1OC(=O)CN [Example 23, trifluoroacetic acid salt] 50

----------
Test system: C. neoformans
assay-method-text: In vitro antifungal activity, IC80 (Method B)
Format: cell-based
cond: Cryptococcus neoformans, pH 7, C. neoformans CY1059, 1×10^4 cells/ml, 1-2 days, 27° C., read-out: Antifungal activity IC80
Quick reference for IC80 among some compounds
Use µg/mL as the unit, but write only the number.

> print(dat)
                                   compound  data.value
1  CO[C@@H]1[C@@H](Cn2cncn2)[C@H](CCc2ccc3ccccc3c2)CCC1(C)C [Example 75]         1.3
2  CO[C@@H]1[C@@H](Cn2cncn2)[C@H](CCc2ccc3ccccc3n2)CCC1(C)C [Example 76]          30

Alright, here's another compound for you.
Value lookup for IC80; key = COc1ccc(CC[C@@H]2CCC(C)(C)[C@H](OC)[C@H]2Cn2cncn2)cc1 [Example 79] 4.7

Data credit: patent US5719291A
